Experiment summary: Pharmacokinetics in male wistar rats
Assay type: in vivo
Measurement conditions: male, Wistar, rat, plasma, oral, P.O. 50 mg/kg vs I.V. 20 mg/kg, read-out: F (oral bioavailability)
Procedure: Appropriate pharmacokinetic parameters are essential to determine the efficacy of anti-cancer drugs. We determined the pharmacokinetic characteristics of YLT192 in male wistar rats. […] After I.V.(20mg/kg) and P.O.(50mg/kg) administration of YLT192 in wistar male rats, the concentration of YLT192 in the plasma was determined by HPLC (n=6 mice per group). […]
Property label: bioavailability (%)
# value in %; strip the unit string

stdin: Which bioavailability value is on record for CNC(=O)c1cc(Oc2ccc(NC(=O)c3cccc(OC)c3)cc2)ccn1 [YLT192] ?
stdout: 50.5
